# tested_target: human Nav1.8 (Homo sapiens (Human), UniProt Q9Y5Y9)
# Sequence (Q9Y5Y9 whole entry): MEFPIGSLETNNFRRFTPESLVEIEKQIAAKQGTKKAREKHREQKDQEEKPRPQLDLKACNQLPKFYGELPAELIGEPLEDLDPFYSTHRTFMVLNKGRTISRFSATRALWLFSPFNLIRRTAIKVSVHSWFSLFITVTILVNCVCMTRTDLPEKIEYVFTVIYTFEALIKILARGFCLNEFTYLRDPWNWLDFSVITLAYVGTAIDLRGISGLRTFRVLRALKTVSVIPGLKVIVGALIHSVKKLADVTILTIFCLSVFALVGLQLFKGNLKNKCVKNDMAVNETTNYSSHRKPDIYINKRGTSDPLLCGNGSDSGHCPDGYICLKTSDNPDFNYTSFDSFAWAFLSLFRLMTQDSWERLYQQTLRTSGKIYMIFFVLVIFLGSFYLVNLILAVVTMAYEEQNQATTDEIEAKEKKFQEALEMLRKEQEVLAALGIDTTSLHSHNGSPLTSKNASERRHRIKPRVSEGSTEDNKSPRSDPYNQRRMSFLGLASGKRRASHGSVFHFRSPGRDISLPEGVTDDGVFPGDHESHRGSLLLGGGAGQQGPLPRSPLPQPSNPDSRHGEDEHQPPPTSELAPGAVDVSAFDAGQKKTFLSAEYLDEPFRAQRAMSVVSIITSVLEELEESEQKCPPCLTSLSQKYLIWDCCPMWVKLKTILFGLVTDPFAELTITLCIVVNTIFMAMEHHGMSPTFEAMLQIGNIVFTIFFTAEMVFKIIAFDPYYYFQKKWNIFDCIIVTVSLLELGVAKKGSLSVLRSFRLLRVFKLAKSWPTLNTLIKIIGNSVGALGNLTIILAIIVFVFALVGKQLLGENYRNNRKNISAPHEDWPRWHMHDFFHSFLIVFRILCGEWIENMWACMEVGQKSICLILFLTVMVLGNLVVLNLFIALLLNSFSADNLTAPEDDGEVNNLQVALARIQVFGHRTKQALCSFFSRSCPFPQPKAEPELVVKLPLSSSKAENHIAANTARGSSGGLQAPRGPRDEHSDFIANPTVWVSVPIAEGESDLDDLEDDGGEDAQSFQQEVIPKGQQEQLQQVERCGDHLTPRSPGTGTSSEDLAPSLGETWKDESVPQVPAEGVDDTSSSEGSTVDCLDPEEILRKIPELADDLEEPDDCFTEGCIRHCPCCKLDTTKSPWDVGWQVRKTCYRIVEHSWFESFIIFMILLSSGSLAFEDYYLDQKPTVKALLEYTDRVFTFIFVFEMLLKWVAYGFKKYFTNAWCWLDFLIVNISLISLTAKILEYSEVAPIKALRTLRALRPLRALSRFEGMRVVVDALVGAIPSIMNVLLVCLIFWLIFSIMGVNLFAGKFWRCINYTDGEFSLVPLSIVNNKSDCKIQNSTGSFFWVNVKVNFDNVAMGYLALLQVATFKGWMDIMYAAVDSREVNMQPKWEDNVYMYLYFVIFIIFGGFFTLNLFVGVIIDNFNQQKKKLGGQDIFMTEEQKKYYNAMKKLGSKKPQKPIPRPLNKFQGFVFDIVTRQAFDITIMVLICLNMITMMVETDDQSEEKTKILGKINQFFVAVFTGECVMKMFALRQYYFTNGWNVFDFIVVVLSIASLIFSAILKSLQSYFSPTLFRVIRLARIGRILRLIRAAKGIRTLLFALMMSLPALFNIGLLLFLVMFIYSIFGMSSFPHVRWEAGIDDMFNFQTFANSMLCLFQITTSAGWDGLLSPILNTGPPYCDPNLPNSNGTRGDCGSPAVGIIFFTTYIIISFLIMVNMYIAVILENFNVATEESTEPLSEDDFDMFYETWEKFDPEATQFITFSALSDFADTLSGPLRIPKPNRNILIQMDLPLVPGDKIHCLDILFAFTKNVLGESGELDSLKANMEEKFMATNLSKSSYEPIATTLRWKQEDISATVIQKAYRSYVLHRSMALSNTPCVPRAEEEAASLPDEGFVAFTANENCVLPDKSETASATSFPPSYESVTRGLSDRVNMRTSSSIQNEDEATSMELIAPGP
# test_summary: Nav1.8 Qube automated patch-clamp assay
# experimental_context: Nav1.8 Qube Assay; human Nav1.8 channels stably expressed in HEK 293 cells
Mark Y only for IC50 values smaller than 60 nM; exact matches and larger values are N.

Please review the entries below; each comes with its answer.
molecule	tested_target	discrete_label
NS(=O)(=O)c1cccc(NC(=O)c2cc(C(F)(F)F)cnc2N2CCCO[C@H](C(F)(F)F)C2)c1	human Nav1.8 (Homo sapiens (Human), UniProt Q9Y5Y9)	Y
Cc1c(F)c(Cl)nc(N2CCCCCC2)c1C(=O)Nc1cccc(S(N)(=O)=O)c1	human Nav1.8 (Homo sapiens (Human), UniProt Q9Y5Y9)	Y
C[C@@H]1CN(c2ncc(C(F)(F)F)cc2C(=O)Nc2cccc(S(N)(=O)=O)c2)C[C@H](C(F)(F)F)O1	human Nav1.8 (Homo sapiens (Human), UniProt Q9Y5Y9)	N

Prompt line: I'd appreciate it if you could check whether `C=CCCc1cnc(N2CCCC(F)(F)CC2)c(C(=O)Nc2cccc(S(N)(=O)=O)c2)c1` has IC50 smaller than 60 nM.
Response line: Y

Prompt line: Confirm or reject: IC50 of `Cc1cnc(N2CCCCCC2)c(C(=O)Nc2cccc(S(N)(=O)=O)c2)c1` lies strictly below 60 nM
Response line: N

Prompt line: Would you kindly verify if IC50 of `CS(=O)(=O)c1cccc(NC(=O)c2cc(C(F)(F)C(F)(F)F)cnc2N2CCCCCC2)c1` is strictly less than 60 nM?
Response line: Y

Prompt line: Strictly below 60 nM in IC50? NS(=O)(=O)c1cccc(NC(=O)c2cc(C(F)(F)F)cnc2N2CC3CCCC32)c1 (stereo not shown)
Response line: N

Prompt line: Item `Cc1nc(N2CCC(F)(F)CC2)c(C(=O)Nc2cccc(C(N)=O)c2)c(C)c1Cl` : IC50 beneath 60 nM, strictly?
Response line: Y
